Target: Dipeptidyl amino peptidase type IV (DPP IV)
Assay: cell-based or functional assay
Where no end group is shown, it is not given here. [ ]: non-standard residue; d: D form. The star is where a group is joined. boroPro = OB(O)[C@@H]1CCCN1*
Catalogue of IC50 at ten minutes, pH 8 values
# number only, unit nM dropped from output

Illustrative cases are given below, each with its answer.
[
  {
    "BINDER": "APV[boroPro] [AlaProValboroPro]",
    "IC50 at ten minutes, pH 8 / nM": 21
  },
  {
    "BINDER": "YPA[boroPro] [Tyrosine-proline-alanine-proline boronic acid]",
    "IC50 at ten minutes, pH 8 / nM": 17
  },
  {
    "BINDER": "GPV[boroPro] [GlyProValboroPro]",
    "IC50 at ten minutes, pH 8 / nM": 46
  }
]

IC50 at ten minutes, pH 8 for FPA[boroPro] [Phenylalanine-proline-alanine-proline boronic acid] is 8
